- Test system: [^3 H]Leu-Leu-OMe uptake by PBL (facilitated transport)
- assayNotes: Competitive inhibition of [3H]Leu-Leu-OMe uptake
- Format: cell-based, human
- measurementContext: Homo sapiens; unlabeled compound 250 microM; [3H]Leu-Leu-OMe 10 microM (Table 5)
Peptide text beside a SMILES is read from it.
endpointLabel: inhibition at 250 µM (%)
Give the value in % but do not write % after it.

Guide cases for inhibition at 250 µM, answers given:
• CC(C)C[C@H](NC(=O)[C@@H](N)CC(C)C)C(N)=O = 8
• CC(C)C[C@H](NC(=O)[C@@H](N)CC(C)C)C(=O)OCc1ccccc1 = 87
• COC(=O)[C@@H](CC(C)C)NC(=O)[C@H](N)CC(C)C = 7
• COC(=O)[C@@H](N)CC(C)C [Leu-OMe, L-leucine methyl ester, reference compound] = -10
• CC(C)C[C@H](NC(=O)[C@@H](N)CC(C)C)C(=O)O [Leu-Leu, L-leucyl L-leucine, reference compound] = 44
• COC(=O)[C@H](CC(C)C)NC(=O)[C@@H](N)CC(C)C = 72

# next molecule below
Give the value of inhibition at 250 µM reported for the following: COC(=O)[C@H](CC(C)C)NC(=O)[C@H](CC(C)C)NC(=O)[C@@H](N)CC(C)C [Leu-Leu-Leu-OMe] (H-Leu-Leu-Leu-OMe)
6
